Data origin, for the record: ChEMBL document CHEMBL1145498

Molecular target: Calcium/calmodulin-dependent protein kinase type II subunit gamma (Homo sapiens) (UniProt Q13555)
Sequence (Q13555 whole entry): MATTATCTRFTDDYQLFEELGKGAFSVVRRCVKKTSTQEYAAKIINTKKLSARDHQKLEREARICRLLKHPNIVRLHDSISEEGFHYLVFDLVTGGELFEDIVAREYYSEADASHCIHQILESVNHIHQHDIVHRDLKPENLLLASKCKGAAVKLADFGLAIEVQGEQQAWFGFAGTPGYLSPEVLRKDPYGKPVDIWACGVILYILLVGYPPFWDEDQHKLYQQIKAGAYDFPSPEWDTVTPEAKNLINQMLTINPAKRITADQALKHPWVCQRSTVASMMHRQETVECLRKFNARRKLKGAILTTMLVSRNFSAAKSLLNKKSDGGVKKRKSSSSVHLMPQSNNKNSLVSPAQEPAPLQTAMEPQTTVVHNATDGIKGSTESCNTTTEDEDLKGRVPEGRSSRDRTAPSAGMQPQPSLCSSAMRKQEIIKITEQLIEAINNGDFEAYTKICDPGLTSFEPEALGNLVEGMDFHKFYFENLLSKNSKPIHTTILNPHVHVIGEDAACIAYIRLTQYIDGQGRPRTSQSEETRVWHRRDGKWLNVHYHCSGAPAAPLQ
Record form. Attribute: ΔTm. Fill in for each entry.

In: Item under review: O=c1cc(N2CCOCC2)oc2c1ccc1ccccc12 . Reported ΔTm?
Out: 0.2 °C

In: Item under review: O=C(O)Cc1ccc(O)c([N+](=O)[O-])c1 . Reported ΔTm?
Out: -0.1 °C

In: Item under review: O=C(Nc1cccc(Nc2nccc(Nc3cccc(C(F)(F)F)c3)n2)c1)C1CC1 [ANILINOPYRIMIDINE1] . Reported ΔTm?
Out: 0.2 °C

In: Item under review: O=c1c2ccccc2[nH]c(=S)n1CCN1CCC(=C(c2ccc(F)cc2)c2ccc(F)cc2)CC1 [DIACYLGLYCEROL KINASE INHIBITOR II] . Reported ΔTm?
Out: -0.5 °C

In: Item under review: CC(C)c1cc(/C=C(\C#N)C(=O)NCCCc2ccccc2)cc(C(C)C)c1O . Reported ΔTm?
Out: 0.5 °C

In: Item under review: N#C/C(=C\c1ccc(O)c(O)c1)C(=O)NCc1ccccc1 . Reported ΔTm?
Out: -0.2 °C

In: Item under review: N#CCCc1ccc2c(c1)-c1[nH]c3ccc([N+](=O)[O-])cc3c1CC(=O)N2 [ALSTERPAULLONE 2] . Reported ΔTm?
Out: 0.1 °C

In: Item under review: CC[C@H](CO)Nc1nc(NCc2ccccc2)c2ncn(C(C)C)c2n1 [SELICICLIB] . Reported ΔTm?
Out: 0.3 °C

In: Item under review: Cn1cc(C2=C(c3cn(CCCN)c4ccccc34)C(=O)NC2=O)c2ccccc21 . Reported ΔTm?
Out: 3.7 °C

* * *

Molecular target: Serine/threonine-protein kinase pim-1 (Homo sapiens)
ΔTm vs 0.7 °C: less than gives label 1; not less than gives label 0.

In: I wonder whether O=C1Cc2c([nH]c3ccc([N+](=O)[O-])cc23)-c2ccccc2N1 has ΔTm below 0.7 °C. Can you tell?
Out: label 0

In: I wonder whether CCOc1ccc(/C=C2/SC(=O)N(CCN)C2=O)cc1 [HIAZOLIDINEDIONE1] has ΔTm below 0.7 °C. Can you tell?
Out: label 1

In: I wonder whether O=C1NC(=O)c2c1c1c3ccccc3n3c1c1c2c2ccccc2n1C1CCC3O1 has ΔTm below 0.7 °C. Can you tell?
Out: label 0

In: I wonder whether Nc1n[nH]c2nnc(-c3c(-c4ccccc4)nn4ccccc34)cc12 has ΔTm below 0.7 °C. Can you tell?
Out: label 0

In: I wonder whether C[C@@H](N)[C@H]1CC[C@H](C(=O)Nc2ccncc2)CC1 has ΔTm below 0.7 °C. Can you tell?
Out: label 1

In: I wonder whether Cc1[nH]c(/C=C2\C(=O)Nc3ccc(S(=O)(=O)N(C)c4cccc(Cl)c4)cc32)c(C)c1C(=O)N1CCN(C)CC1 has ΔTm below 0.7 °C. Can you tell?
Out: label 1

In: I wonder whether NS(=O)(=O)c1ccc(Nc2nc(OCC3CCCCC3)c3nc[nH]c3n2)cc1 has ΔTm below 0.7 °C. Can you tell?
Out: label 1

In: I wonder whether COc1cc2ncnc(Nc3cccc(O)c3)c2cc1OC has ΔTm below 0.7 °C. Can you tell?
Out: label 1

In: I wonder whether O=C1NC(=O)C(c2cn(CCCn3ccnc3)c3ccccc23)=C1Nc1ccccc1 has ΔTm below 0.7 °C. Can you tell?
Out: label 0

In: I wonder whether O=c1cc(-c2ccc(O)cc2)oc2cc(O)cc(O)c12 has ΔTm below 0.7 °C. Can you tell?
Out: label 0

In: I wonder whether COc1ccc(CNc2nc(N(CCO)CCO)nc3c2ncn3C(C)C)cc1 has ΔTm below 0.7 °C. Can you tell?
Out: label 1

In: I wonder whether CC(=O)O/N=C1/C(=C2/C(=O)Nc3cc(Br)ccc32)Nc2ccccc21 [6-BROMOINDIRUBIN-3'-ACETOXIME] has ΔTm below 0.7 °C. Can you tell?
Out: label 1

In: I wonder whether CC(C)(C)c1cc(C=C2C(=O)C=CC2=O)cc(C(C)(C)C)c1O has ΔTm below 0.7 °C. Can you tell?
Out: label 1

In: I wonder whether Cc1nc(Nc2ncc(C(=O)Nc3c(C)cccc3Cl)s2)cc(N2CCN(CCO)CC2)n1 has ΔTm below 0.7 °C. Can you tell?
Out: label 1

In: I wonder whether Nc1cc2ncnc(Nc3cccc(Br)c3)c2cc1N has ΔTm below 0.7 °C. Can you tell?
Out: label 0

In: I wonder whether O=C(Nc1cccc(Nc2nccc(Nc3cccc(C(F)(F)F)c3)n2)c1)C1CC1 [ANILINOPYRIMIDINE1] has ΔTm below 0.7 °C. Can you tell?
Out: label 0

In: I wonder whether NCCNc1ncc(C(N)=O)c(Nc2cccc(C(F)(F)F)c2)n1 has ΔTm below 0.7 °C. Can you tell?
Out: label 0

In: I wonder whether Nc1ncnc2c1c(I)cn2[C@@H]1O[C@H](CO)[C@@H](O)[C@H]1O has ΔTm below 0.7 °C. Can you tell?
Out: label 0

In: I wonder whether CCN(CC)CCNC(=O)c1c(C)[nH]c(/C=C2\C(=O)Nc3ccc(Cl)cc32)c1C [SU-11652] has ΔTm below 0.7 °C. Can you tell?
Out: label 0
